tested on: T-47D breast; experiment: NCI-60 one-dose screen, 48 h (100 = growth as untreated, 0 = no growth, -100 = all killed); conditions: 10 µM unless noted
Compounds without any hit were thinned out: in the full panel of roughly 83,000, 20% have a hit. Active and inactive are the calls of the source. The calls were made as follows: active = growth percent below 10; inactive = the rest.
Endpoint: growth

# Compound, Recorded result
measured = [
    ("CCN(CC)CCNc1ccc(Cl)cc1Cl", "98.6% (inactive)"),
    ("CCC1=C(c2ccc(OC)cc2)C(C)(C)Oc2cc(O)c(CN3CCCC3)cc21", "68.2% (inactive)"),
    ("COC(=O)[C@]1(CCSC)N[C@H](c2cn(-c3ccccc3)nc2C)[C@@H]2C(=O)N(c3ccc(C)cc3)C(=O)[C@@H]21", "101% (inactive)"),
    ("C=Cc1nn2c(CCC(=O)c3nc4ccccc4[nH]3)nnc2s1", "106% (inactive)"),
    ("Fc1ccc(-c2nc(Nc3ccc(-c4nc5ccccc5[nH]4)cc3)nc(N3CCOCC3)n2)cc1", "-64.8% (active)"),
    ("NC(N)=NC(N)=NCCCc1ccccc1", "53.7% [100 µM] (inactive)"),
    ("COc1cccc(/C=C2\\COc3ccc(O)c(O)c3C2=O)c1OC", "4.89% (active)"),
    ("CCc1[nH]nc(-c2ccc(OC)cc2)c1-c1ccccc1OCCN(CC)CC", "97.4% (inactive)"),
    ("O=C(/C=C/c1ccccc1)CC(c1ccccc1)N1CCOCC1 (stereo not drawn)", "81.3% (inactive)"),
    ("CCCCn1c(Cc2ccc(Cl)cc2)nc2cc(OC)c(OC)cc2c1=O", "101% (inactive)"),
    ("COc1ccc(-c2c3c(nn2-c2ccc(N)cc2)CCc2cnoc2-3)cc1OC", "97% (inactive)"),
    ("O=C1/C(=N/O)CCc2ccccc21", "100% (inactive)"),
    ("COc1cc2c(c(OC)c1OC)CCc1cnoc1-2", "97.7% (inactive)"),
    ("CN(C)c1nc(-c2ccco2)n2nc(-c3ccco3)cc2n1", "38% (inactive)"),
    ("CN(CC(=O)Nc1nc2ccccc2[nH]1)S(=O)(=O)c1ccc(Cl)cc1", "77% (inactive)"),
    ("O=C(NCCCO)c1cc(Cl)ccc1O", "30% (inactive)"),
    ("Cc1cc2c(C#N)n3c(c2cc1C)C(=O)C(c1ccccc1)Oc1ccccc1-3 (stereo not drawn)", "15.2% (inactive)"),
    ("C=CCOc1ccc2c(c1)CC[C@@H]1[C@@H]2CC[C@@]2(C)[C@H]1CC[C@]2(C)O", "79.9% (inactive)"),
    ("CCCCc1nc(Cl)c(CO)n1Cc1ccc(-c2ccccc2-c2nn[nH]n2)cc1", "110% (inactive)"),
    ("OCCOc1c(Cl)cc(Cl)cc1Cl", "109% (inactive)"),
    ("Cc1nn(-c2ccccc2)c2nc(Cl)c(/C=C/C(=O)c3ccccc3)c(-c3ccccc3)c12", "107% (inactive)"),
    ("COc1ccc(Cn2c(NCCCN(C)C)nc(=O)n(Cc3ccc(F)cc3)c2=O)cc1", "83.4% (inactive)"),
    ("Oc1ccc(Cc2ccc(O)c(C3CC(c4ccc(Cl)cc4)=NN3)c2)cc1C1CC(c2ccc(Cl)cc2)=NN1 (stereo not drawn)", "38.3% (inactive)"),
    ("Cc1nn(-c2ccc(Cl)cc2)c2nc3c(nc12)C(=O)C(=O)c1ccccc1-3", "67.6% (inactive)"),
    ("COc1c(O)cc2oc3cc(O)c(CC=C(C)C)c(O)c3c(=O)c2c1C/C=C(\\C)CCC=C(C)C", "77.1% (inactive)"),
    ("O=c1[nH]c(Cl)nc2c1cnn2-c1ccccc1", "98.4% (inactive)"),
    ("COc1ccc(/C=N/NC(=O)c2ccc(S(C)(=O)=O)cc2)cc1OC", "96.6% (inactive)"),
    ("Cc1nn(-c2ccc(Cl)cc2)c2nc3c(nc12)C(=O)c1ccccc1-3", "73.7% (inactive)"),
    ("Nc1ccccc1-c1ccc([N+](=O)[O-])cc1", "38.6% (inactive)"),
    ("CCCCCCCCCCSc1ncnc2nc[nH]c12", "47.9% (inactive)"),
    ("CCCn1cnc2c1c(=O)n(CCCCC(C)=O)c(=O)n2C", "99% (inactive)"),
    ("COc1ccc2nc(-c3ccc(-n4cncc4-c4ccc(OC)c(N)c4)cc3)sc2c1", "102% (inactive)"),
    ("O=C1/C(=C/c2ccc3cccc(Cl)c3n2)SC(=S)N1CCc1ccc(O)cc1", "65.5% (inactive)"),
    ("CCCCCCCCCCCCCCCCCC1=NC(C)(C)CN1CCO", "-23.9% (active)"),
    ("Cc1nc2cc(NC(=O)CN3CCN(CCN4C(=O)c5cccc6cccc(c56)C4=O)CC3)ccc2s1", "50.7% (inactive)"),
    ("CCOC(=O)C1=C(COCCN)NC(C)=C(C(=O)OC)C1c1ccccc1Cl (stereo not drawn)", "51.7% (inactive)"),
    ("Cn1cc(-c2nc(-c3c[nH]c4ncc(F)cc34)cs2)c2cccnc21", "59.9% (inactive)"),
    ("COc1cc(NC(=O)c2cc3ccccc3cc2O)c(OC)cc1Cl", "4.25% (active)"),
    ("COc1ccc2[nH]cc(/C=C3/C(=O)Nc4ccc(Cl)cc43)c2c1", "61.9% (inactive)"),
    ("COc1ccc(C2=NN(C(C)=O)C(c3cc(OC)c(OC)c(OC)c3)C2)cc1 (stereo not drawn)", "92.1% (inactive)"),
    ("CC[C@@H]1OC(=O)[C@H](C)[C@@H](O[C@H]2C[C@@](C)(OC)[C@@H](O)[C@H](C)O2)[C@H](C)[C@@H](O[C@@H]2O[C@H](C)C[C@H](N(C)C)[C@H]2O)[C@](C)(O)C[C@@H](C)[C@@H]2N[C@@H](COCCOC)O[C@H]([C@H]2C)[C@]1(C)O", "105% (inactive)"),
    ("CN(C)c1nc(N)nc(Cn2c(-c3nonc3N)nc3ccccc32)n1", "89.7% (inactive)"),
    ("CCCCCCC(C)(O)c1ccccc1 (stereo not drawn)", "101% (inactive)"),
]
